assayMethodText: Oral bioavailability in rat at 5 mg/kg
Type: ADME, organism-based
appliedConditions: in vivo
measurementType: bioavailability (%)

>>> print(df.to_string())
                                   molecule  measurementtype  readoutvalue
0  Cc1cc(Oc2nccc3occc23)ccc1-c1c(C)ncc2nccn12 (atropisomer S)  bioavailability            85
